These measurements were taken from ChEMBL document CHEMBL4049458.

assay: Selectivity index, ratio of CC50 for human MT4 cells to EC50 for wild type HIV1 3B harboring reverse transcriptase infected in human MT4 cells; conditions: MT4 cells
Each record here notes measured selectivity ratio.

| molecule | relationOperator | selectivity ratio |
| --- | --- | --- |
| CCOC(=O)c1ccc(CN2CCC(Nc3nc(Oc4c(C)cc(/C=C/C#N)cc4C)c4sccc4n3)CC2)cc1 | ≥ | 247 |
| Cc1cc(/C=C/C#N)cc(C)c1Oc1nc(NC2CCN(Cc3ccc(C#N)cc3)CC2)nc2ccsc12 | = | 509 |
| Cc1cc(/C=C/C#N)cc(C)c1Oc1nc(NC2CCN(Cc3cccc(F)c3)CC2)nc2ccsc12 | = | 489 |
| Cc1cc(C#N)cc(C)c1Oc1nc(NC2CCN(Cc3ccc(S(N)(=O)=O)cc3)CC2C(=O)O)nc2ccsc12 (configuration not stated) | = | 38 |
| Cc1cc(/C=C/C#N)cc(C)c1Oc1nc(NC2CCN(Cc3ccc([N+](=O)[O-])cc3)CC2)nc2ccsc12 | = | 456 |
| Cc1ccc(CN2CCC(Nc3nc(Oc4c(C)cc(/C=C/C#N)cc4C)c4sccc4n3)CC2)cc1 | = | 326 |
| Cc1cc(C#N)cc(C)c1Oc1nc(NC2CCC(NCc3ccc(Br)cc3)CC2)nc2ccsc12 (configuration not stated) | = | 10 |
| Cc1cc(C#N)cc(C)c1Oc1nc(NC2CCN(Cc3cccc(C(N)=O)c3)CC2)nc2sccc12 | > | 9420 |
| Cc1cc(/C=C/C#N)cc(C)c1Oc1nc(NC2CCN(Cc3cccnc3)CC2)nc2ccsc12 | = | 1200 |
| Cc1cc(C#N)cc(C)c1Oc1nc(NC2CCC(NCc3ccc(S(C)(=O)=O)cc3)CC2)nc2ccsc12 (configuration not stated) | = | 1320 |
| Cc1cc(/C=C/C#N)cc(C)c1Oc1nc(NC2CCN(Cc3cccc(C(N)=O)c3)CC2)nc2ccsc12 | = | 1080 |
| Cc1cc(/C=C/C#N)cc(C)c1Oc1nc(NC2CCN(Cc3ccc(F)cc3)CC2)nc2ccsc12 | = | 441 |
| Cc1cc(/C=C/C#N)cc(C)c1Oc1nc(NC2CCN(Cc3ccc(Cl)cc3)CC2)nc2ccsc12 | = | 156 |
| Cc1cc(/C=C/C#N)cc(C)c1Oc1nc(NC2CCN(Cc3ccncc3)CC2)nc2ccsc12 | = | 1430 |
| Cc1cc(/C=C/C#N)cc(C)c1Oc1nc(NC2CCN(Cc3ccccc3F)CC2)nc2ccsc12 | = | 392 |
| Cc1cc(C#N)cc(C)c1Oc1nc(NC2CCN(Cc3ccc(C(N)=O)cc3)CC2)nc2sccc12 | = | 32 |
| Cc1cc(C#N)cc(C)c1Oc1nc(NC2CCN(Cc3ccc(S(N)(=O)=O)cc3)CC2)nc2sccc12 | = | 12300 |
| Cc1cc(C#N)cc(C)c1Oc1nc(NC2CCC(NCc3ccc(O)cc3)CC2)nc2ccsc12 (configuration not stated) | = | 15 |
| Cc1ccccc1CN1CCC(Nc2nc(Oc3c(C)cc(/C=C/C#N)cc3C)c3sccc3n2)CC1 | = | 180 |
| CCOC(=O)C1CN(Cc2ccc(S(N)(=O)=O)cc2)CCC1Nc1nc(Oc2c(C)cc(C#N)cc2C)c2sccc2n1 (configuration not stated) | = | 32 |
| Cc1cc(/C=C/C#N)cc(C)c1Oc1nc(NC2CCN(Cc3cccc(C#N)c3)CC2)nc2ccsc12 | = | 639 |
| Cc1cc(/C=C/C#N)cc(C)c1Oc1nc(NC2CCN(Cc3ccccn3)CC2)nc2ccsc12 | = | 1150 |
| Cc1cc(C#N)cc(C)c1Oc1nc(NC2CCN(Cc3ccc(S(N)(=O)=O)cc3)CC2F)nc2ccsc12 (configuration not stated) | = | 906 |
| Cc1cc(/C=C/C#N)cc(C)c1Oc1nc(NC2CCN(Cc3cccc(Br)c3)CC2)nc2ccsc12 | = | 308 |
| Cc1cc(C#N)cc(C)c1Oc1nc(NC2CCC(NCc3ccc(F)cc3)CC2)nc2ccsc12 (configuration not stated) | = | 5 |
| Cc1cc(C#N)cc(C)c1Oc1nc(NC2CCC(NCc3ccc(C#N)cc3)CC2)nc2ccsc12 (configuration not stated) | = | 1.3 |
| Cc1cc(/C=C/C#N)cc(C)c1Oc1nc(NC2CCN(Cc3ccccc3Cl)CC2)nc2ccsc12 | = | 179 |
| Cc1cc(/C=C/C#N)cc(C)c1Oc1nc(NC2CCN(Cc3ccc(Br)cc3)CC2)nc2ccsc12 | = | 240 |
| Cc1cc(C#N)cc(C)c1Oc1nc(NC2CCC(NCc3cccc(C(F)(F)F)c3)CC2)nc2ccsc12 (configuration not stated) | = | 4 |
| Cc1cc(/C=C/C#N)cc(C)c1Oc1nc(NC2CCN(Cc3ccccc3C#N)CC2)nc2ccsc12 | = | 236 |
| Cc1cc(C#N)cc(C)c1Oc1nc(NC2CCC(NCc3ccc([N+](=O)[O-])cc3)CC2)nc2ccsc12 (configuration not stated) | = | 544 |
| Cc1cc(C#N)cc(C)c1Oc1nc(NC2CCC(NCc3ccccc3)CC2)nc2ccsc12 (configuration not stated) | = | 13 |
| Cc1cc(C#N)cc(C)c1Oc1nc(NC2CCN(Cc3ccc(S(C)(=O)=O)cc3)CC2)nc2sccc12 | = | 335 |
| Cc1cc(/C=C/C#N)cc(C)c1Oc1nc(NC2CCN(Cc3cccc(Cl)c3)CC2)nc2ccsc12 | = | 188 |
| CCOC(=O)c1ccc(CN2CCC(Nc3nc(Oc4c(C)cc(C#N)cc4C)c4ccsc4n3)CC2)cc1 | > | 2330 |
| COC(=O)c1ccc(CN2CCC(Nc3nc(Oc4c(C)cc(C#N)cc4C)c4ccsc4n3)CC2)cc1 | = | 5450 |
| Cc1cc(/C=C/C#N)cc(C)c1Oc1nc(NC2CCN(Cc3ccccc3Br)CC2)nc2ccsc12 | = | 140 |

* * *

assay: Cytotoxicity against human MT4 cells assessed as cell viability after 5 days by MTT assay; type: cell-based
CC50 at 120 h strictly less than 9 µM = Y. Otherwise N.

| compound | className |
| --- | --- |
| Cc1cc(/C=C/C#N)cc(C)c1Oc1nc(NC2CCN(Cc3ccccc3Cl)CC2)nc2ccsc12 | Y |
| Cc1cc(C#N)cc(C)c1Oc1nc(NC2CCN(Cc3ccc(S(N)(=O)=O)cc3)CC2C(=O)O)nc2ccsc12 (stereo not drawn) | N |
| Cc1cc(C#N)cc(C)c1Oc1nc(NC2CCC(NCc3ccc(S(C)(=O)=O)cc3)CC2)nc2ccsc12 (stereo not drawn) | N |
| COC(=O)c1ccc(CN2CCC(Nc3nc(Oc4c(C)cc(C#N)cc4C)c4ccsc4n3)CC2)cc1 | N |
| Cc1ccccc1CN1CCC(Nc2nc(Oc3c(C)cc(/C=C/C#N)cc3C)c3sccc3n2)CC1 | Y |
| Cc1cc(C#N)cc(C)c1Oc1nc(NC2CCC(NCc3ccc(O)cc3)CC2)nc2ccsc12 (stereo not drawn) | N |
| Cc1cc(C#N)cc(C)c1Oc1nc(NC2CCC(NCc3ccc(C(N)=O)cc3)CC2)nc2ccsc12 (stereo not drawn) | Y |
| Cc1cc(C#N)cc(C)c1Oc1nc(NC2CCC(NCc3ccc([N+](=O)[O-])cc3)CC2)nc2ccsc12 (stereo not drawn) | N |
| Cc1cc(/C=C/C#N)cc(C)c1Oc1nc(NC2CCN(Cc3ccc(Cl)cc3)CC2)nc2ccsc12 | Y |
| Cc1cc(C#N)cc(C)c1Oc1nc(NC2CCCN(Cc3ccc(S(N)(=O)=O)cc3)C2)nc2ccsc12 (stereo not drawn) | Y |
| Cc1cc(/C=C/C#N)cc(C)c1Oc1nc(NC2CCN(Cc3ccccn3)CC2)nc2ccsc12 | Y |
| Cc1cc(C#N)cc(C)c1Oc1nc(NC2CCC(NCc3ccc(C#N)cc3)CC2)nc2ccsc12 (stereo not drawn) | Y |
| Cc1cc(/C=C/C#N)cc(C)c1Oc1nc(NC2CCN(Cc3cccc(Br)c3)CC2)nc2ccsc12 | Y |
| Cc1cc(C#N)cc(C)c1Oc1nc(NC2CCC(NCc3ccc(F)cc3)CC2)nc2ccsc12 (stereo not drawn) | Y |
| Cc1cc(/C=C/C#N)cc(C)c1Oc1nc(NC2CCN(Cc3ccc(C#N)cc3)CC2)nc2ccsc12 | Y |

* * *

assay: Selectivity index, ratio of CC50 for human MT4 cells to EC50 for reverse transcriptase F227L/V106A double mutant in human MT4 cells infected HIV1 3B; details: MT4 cells
Below is a list of entries, each paired with its recorded selectivity ratio value.

| compoundString | selectivity ratio |
| --- | --- |
| Cc1cc(/C=C/C#N)cc(C)c1Oc1nc(NC2CCN(Cc3ccncc3)CC2)nc2ccsc12 | 322 |
| Cc1cc(/C=C/C#N)cc(C)c1Oc1nc(NC2CCN(Cc3cccc(C(N)=O)c3)CC2)nc2ccsc12 | 448 |
| Cc1cc(/C=C/C#N)cc(C)c1Oc1nc(NC2CCN(Cc3ccccc3F)CC2)nc2ccsc12 | 61 |
| Cc1cc(/C=C/C#N)cc(C)c1Oc1nc(NC2CCN(Cc3ccccc3Cl)CC2)nc2ccsc12 | 68 |
